SYSTEM: CIB1 and αIIb interaction (CIB1-GST : F-αIIb peptide) (Homo sapiens)
Construct: made in house; host or cells: BL-21 plus RIL cells (E. coli)
Sequence (Q99828 1-191): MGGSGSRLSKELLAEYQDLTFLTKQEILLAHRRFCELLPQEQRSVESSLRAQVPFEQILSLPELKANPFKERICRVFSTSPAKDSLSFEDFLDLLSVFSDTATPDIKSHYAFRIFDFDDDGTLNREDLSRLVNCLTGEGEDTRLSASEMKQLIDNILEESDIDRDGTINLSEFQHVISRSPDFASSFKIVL
EXPERIMENT NOTES: FP assay, 1536-well qHTS format (primary and confirmatory screen)
Type: binding
CONDITION NOTES: Table S3, confirmatory screen; negative = inhibition
ENDPOINT LABEL: Efficacy (%) (confirmatory screen)
Form entry: value (%) — number only.

The reported value for NC(=O)C1CCN(c2nc(-c3ccccc3N)cs2)CC1.O=C(O)C(F)(F)F in terms of Efficacy (%) (confirmatory screen) is -21

Measured Efficacy (%) (confirmatory screen), C=C1C(=O)OC2C(OC(=O)C=C(C)C)C(C)=C3C(=O)C=C(C)C3C(O)C12 (stereo not shown) : -43

// sample O=C(c1cc(O)c(O)c(O)c1)c1ccc(O)c(O)c1O , its Efficacy (%) (confirmatory screen) was -86

Item: O=C(O)C(F)(F)F.O=C1CCCC2=C1C(c1ccncc1)N=C(Nc1nc3ccccc3o1)N2 (stereo not shown) | Efficacy (%) (confirmatory screen): -25
